src = patent US20120045393A1

molecular target: LHRH binding sites on EFO-27 human ovarian cancer cells (human); experiment: competition with [125I-Tyr8]BRU-2477 on EFO-27 cells
Non-standard residues stand in square brackets, D forms with d. Bpa = N[C@@H](Cc1ccc(C(=O)c2ccccc2)cc1)C(=O)O; DO3A10CM = not defined here; Etgly = not defined here; dAfe4 = not defined here; Btd = not defined here; azaGly = NNC(=O)O; Sar = CNCC(=O)O
Measurement label: EC50 (µM)
One number for each entry, in µM.

Use the examples below as a reference point.
[[record]]
binder = "GXRWSHXWXPX (DO3A10CM-Gly (linker) on N-terminus; AA1 Dtpi; AA6 Darg; AA8 Bpa4; AA10 azaGly-NH2) [BRU-3068]"
observed = 0.24

[[record]]
binder = "DO3A10CM-G[Etgly]HWSH[dR]W[Bpa]P[azaGly]-NH2 (reading uncertain) [BRU-2789]"
observed = 5.12

[[record]]
binder = "DO3A10CM-[Sar]HWSH[Btd]W[Bpa]P[azaGly]-NH2 (reading uncertain) [BRU-3000]"
observed = 4.23


Count: 3. Required value per item: EC50.
1. XRWSHXWXPG (DO3A10CM on N-terminus; AA1 Dnal2; AA6 Darg; AA8 Bpa4; C-terminal Gly-Aprp1h3) [BRU-2987]
2. DO3A10CM-[Sar][dAfe4]WSH[dR]W[Bpa]P[azaGly]-NH2 (reading uncertain) [BRU-2815]
3. XRWSHXWXPG (DO3A10CM on N-terminus; AA1 Dnal2; AA6 Darg; AA8 Bpa4; C-terminal Gly-Az23(py2)2po-Ap) [BRU-2989]

Solution:
[2.3, 7.25, 1.13]
